For each of the compounds below, state its EC50.
# ASSAY TARGET: soluble guanylate cyclase (sGC) (Homo sapiens, UniProt Q02108+Q02153)
# Construct: endogenously expressing soluble guanylate cyclase (sGC); endogenous in cells; host or cells: HEK293
# PROTOCOL DETAILS: sGC-HEK-cGMP assay, LC/MS detection, with SNP incubation (Example 2A)
# Format: cell-based
# ASSAY CONDITIONS: HEK293 cells, in the presence of 10 μM SNP; constrained fit; read-out: sGC_HEK_LCMS cEC50 (nM) Binned (constrained)

Query string: Requested field: EC50. Item: Fc1ccccc1Cn1nc(-c2ncc(F)c(OC3CCNC3)n2)cc1-c1ccon1 (stereo not drawn)
Result string: 1000 to 5000 nM

Query string: Could you do the same for CS(=O)(=O)CCCOc1nc(-c2cc(-c3ccon3)n(Cc3ccccc3F)n2)ncc1F , please?
Result string: 1000 to 5000 nM

Query string: Same for O=C(COc1nc(-c2cc(-c3ccon3)n(Cc3ccccc3F)n2)ncc1F)N1CCOCC1
Result string: 1000 to 5000 nM

---

# ASSAY TARGET: sGC enzyme (Homo sapiens, UniProt Q02108+Q02153)
# Construct: host or cells: HEK293 cells stably expressing GloSensor 40F cGMP biosensor
# PROTOCOL DETAILS: cGMP GloSensor cell-based assay, 384-well format (Example 2C)
# ASSAY CONDITIONS: read-out: sGC_HEK_GloSensor EC50/IC50 Abs (Norm) (nM) Binned
# Procedure: Human embryonic kidney cells (HEK293) cells expressing GloSensor™ 40F cGMP (Part No: CS182801, Promega) were used to evaluate the activity of test compounds. The luminescent biosensors (engineered luciferase) that were incorporated into these cells detect cGMP formed by the compounds stimulating the sGC enzyme and emit luminescence. […] For the kinetics studies, luminescense was measured right away for 0.2 sec per well with Envision (Perkin Elmer model No). […]
Provide the recorded EC50 for the entries that follow.

Query string: Quick check: EC50 of Fc1ccccc1Cn1nc(-c2ncc(F)c(Sc3ccccc3)n2)cc1-c1ccon1 ?
Result string: 100 to 1000 nM

Query string: // next record O=S(=O)(c1ccccc1)c1nc(-c2cc(-c3ccon3)n(Cc3ccccc3F)n2)ncc1F
Result string: ≤ 100 nM

Query string: Please do the same for OCCSc1cnc(-c2cc(-c3ccon3)n(Cc3ccccc3F)n2)nc1SCCO as well.
Result string: > 1000 nM

Query string: Same question, OCCSc1nc(-c2cc(-c3ccon3)n(Cc3ccccc3F)n2)ncc1F this time
Result string: > 1000 nM

---

# ASSAY TARGET: human recombinant soluble guanylate cyclase enzyme α1β1 (Homo sapiens, UniProt Q02108+Q02153)
# Construct: purchased Enzo Life Sciences ALX-201-177
# Sequence (Q02153 1-619): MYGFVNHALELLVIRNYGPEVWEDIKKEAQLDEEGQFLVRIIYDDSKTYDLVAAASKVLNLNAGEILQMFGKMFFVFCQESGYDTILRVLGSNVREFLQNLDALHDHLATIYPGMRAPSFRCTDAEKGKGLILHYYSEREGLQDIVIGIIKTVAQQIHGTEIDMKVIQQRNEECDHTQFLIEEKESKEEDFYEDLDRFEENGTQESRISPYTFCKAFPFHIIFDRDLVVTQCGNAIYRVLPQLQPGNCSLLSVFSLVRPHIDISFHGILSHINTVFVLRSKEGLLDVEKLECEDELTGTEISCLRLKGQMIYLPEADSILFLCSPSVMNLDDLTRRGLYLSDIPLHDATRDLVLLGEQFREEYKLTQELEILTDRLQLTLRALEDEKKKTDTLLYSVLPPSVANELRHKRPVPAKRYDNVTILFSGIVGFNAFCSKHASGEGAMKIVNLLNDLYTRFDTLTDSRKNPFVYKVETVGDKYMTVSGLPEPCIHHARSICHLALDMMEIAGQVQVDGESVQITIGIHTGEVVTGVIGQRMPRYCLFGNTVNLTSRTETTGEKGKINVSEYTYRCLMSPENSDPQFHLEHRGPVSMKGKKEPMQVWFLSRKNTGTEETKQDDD
# Sequence (Q02108 1-690): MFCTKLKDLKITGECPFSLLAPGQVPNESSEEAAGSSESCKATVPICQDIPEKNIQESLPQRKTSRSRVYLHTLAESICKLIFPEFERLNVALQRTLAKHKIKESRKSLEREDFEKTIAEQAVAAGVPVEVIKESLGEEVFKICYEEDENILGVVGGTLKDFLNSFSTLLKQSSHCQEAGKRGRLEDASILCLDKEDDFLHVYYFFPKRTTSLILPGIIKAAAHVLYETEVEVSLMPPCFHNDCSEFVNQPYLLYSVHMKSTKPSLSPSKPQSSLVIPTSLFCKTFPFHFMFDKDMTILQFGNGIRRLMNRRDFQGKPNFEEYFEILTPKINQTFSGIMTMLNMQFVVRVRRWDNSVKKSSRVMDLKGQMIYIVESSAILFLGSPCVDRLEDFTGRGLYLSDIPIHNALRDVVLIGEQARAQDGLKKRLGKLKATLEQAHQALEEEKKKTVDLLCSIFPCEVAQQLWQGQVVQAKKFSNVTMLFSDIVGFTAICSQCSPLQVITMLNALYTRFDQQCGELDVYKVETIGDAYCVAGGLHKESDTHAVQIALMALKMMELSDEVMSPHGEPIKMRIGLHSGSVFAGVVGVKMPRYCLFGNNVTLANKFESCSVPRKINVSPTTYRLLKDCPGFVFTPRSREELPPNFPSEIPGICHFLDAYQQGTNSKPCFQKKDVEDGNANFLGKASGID
# PROTOCOL DETAILS: Purified human recombinant sGC α1β1 enzyme assay with DETA-NONOate, cGMP HTRF (Example 5)
# Type: biochemical
# ASSAY CONDITIONS: 30 uM DETA NONOate, 50% of maximal response of 30 uM Compound Y, read-out: sGC_Enz_HTRF_a1b1 EC50/IC50 Abs (Norm) (nM) Binned
Kindly state EC50 for each of the entries shown.

Query string: What EC50 value was documented for this molecule, OCCOc1nc(-c2cc(-c3ccon3)n(Cc3ccccc3F)n2)ncc1F [Compound I-1] ?
Result string: 1000 to 5000 nM

Query string: Also CN(C)CCOc1nc(-c2cc(-c3ccon3)n(Cc3ccccc3F)n2)ncc1F [Compound I-2] , if possible.
Result string: 1000 to 5000 nM

Query string: And what about the molecule O=C(O)COc1nc(-c2cc(-c3ccon3)n(Cc3ccccc3F)n2)ncc1F [Compound I-6] ?
Result string: ≥ 5000 nM

Source listed as patent US20170298055A1.
